20mM inhibition LmjIPCS values for the compounds below.
- TARGET_UNDER_TEST: LmjIPCS (inositol phosphorylceramide synthase from L. major) (Leishmania major)
- Sequence (E9AFX2 whole entry): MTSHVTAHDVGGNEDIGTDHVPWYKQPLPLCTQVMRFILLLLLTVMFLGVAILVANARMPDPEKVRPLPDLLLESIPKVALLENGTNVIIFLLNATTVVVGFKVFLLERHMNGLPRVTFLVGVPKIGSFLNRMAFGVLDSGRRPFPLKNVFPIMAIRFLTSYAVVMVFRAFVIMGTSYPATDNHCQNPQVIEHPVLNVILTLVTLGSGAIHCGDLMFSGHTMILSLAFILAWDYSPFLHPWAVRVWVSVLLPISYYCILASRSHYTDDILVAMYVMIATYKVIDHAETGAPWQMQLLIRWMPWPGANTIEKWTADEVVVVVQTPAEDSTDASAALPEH
- TEST_METHOD_NOTES: biochemical
- Assay type: biochemical
- EXPERIMENTAL_CONDITIONS: NINDS set screen, single concentration printed as 20mM
PROPERTY_NAME: 20mM inhibition LmjIPCS (%)

{"columns": ["COMPOUND", "PROPERTY_NAME", "UNIT_ABBREVIATION", "VALUE_MEASURED"],
 "data": [
  ["O=C1NCC2(CCN(CCc3ccccc3)CC2)O1 [FENSPIRIDE]", "20mM inhibition LmjIPCS", "%", 47],
  ["CC12CCC3c4ccc(OCc5ccccc5)cc4CCC3C1C[C@@H](O)[C@@H]2O (stereo partly drawn) [ESTRIOL BENZYL ETHER]", "20mM inhibition LmjIPCS", "%", 42],
  ["CCCC1O[C@@H]2C[C@H]3[C@@H]4CCC5=CC(=O)C=C[C@]5(C)[C@H]4[C@@H](O)C[C@]3(C)[C@]2(C(=O)CO)O1 (stereo partly drawn) [BUDESONIDE]", "20mM inhibition LmjIPCS", "%", 79],
  ["Cc1cc(C(C)(C)C)c(O)c(C(C)(C)C)c1 [2,6-DI-t-BUTYL-4-METHYLPHENOL]", "20mM inhibition LmjIPCS", "%", 36],
  ["Cc1cc(C2CCCCC2)n(O)c(=O)c1 [CICLOPIROX OLAMINE]", "20mM inhibition LmjIPCS", "%", 66],
  ["CC1(C)[C@H]2CC[C@@]1(C)C(=O)C2 [1R-CAMPHOR]", "20mM inhibition LmjIPCS", "%", 46],
  ["CC12CC3CC(C)(C1)CC(N)(C3)C2 [MEMANTINE]", "20mM inhibition LmjIPCS", "%", 66],
  ["O=C1C(O)=C([C@H]2CC[C@H](c3ccc(Cl)cc3)CC2)C(=O)c2ccccc21 [ATOVAQUONE]", "20mM inhibition LmjIPCS", "%", 46],
  ["CCOC(=O)C1=C[C@]2(CC)CCCN3CCc4c(n1c1ccccc41)[C@@H]32 [VINPOCETINE]", "20mM inhibition LmjIPCS", "%", 36]
]}
